List of %Inh values.
System: WNK4
Conditions: concentration: 1 μM, replicates: in singlicate; n = 1;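 also: KINOMEscan kinase panel screen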
The number alone won't do; follow it with the unit.

>>> test_result("Cn1cncc1C(=O)NC1CCN(c2ccnc(Nc3ccc(F)cc3)n2)C1 (stereo not drawn)")
"0%"
>>> test_result("O=C(Nc1n[nH]c2cc(-c3ccsc3)ccc12)C1CC1")
"9%"
>>> test_result("COc1ccc(Nc2nccc(-c3ccc(NC(=O)c4cc5cc(F)ccc5[nH]4)cc3)n2)cc1")
"51%"

Next up:
Sure, the documented %Inh for `CS(=O)(=O)Cc1ccc(Nc2nccc(-c3c(-c4cccc(NC(=O)C5CCCCC5)c4)nn4ncccc34)n2)cc1` is 44%

---

Test system: MYLK4
Conditions: concentration: 1 μM, replicates: in singlicate; n = 1
Just a reminder that ties go to Not satisfied: only %Inh strictly below 7% counts as Satisfied.

Example cases with answers are listed next.
>>> class_assignment("COc1nccc(-c2c(-c3ccc(F)cc3)ncn2CCCN2CCOCC2)n1")
"Satisfied"
>>> class_assignment("COC(=O)C(NC(=O)NC1CCN(c2ccnc(Nc3ccc(F)cc3)n2)C1)c1ccccc1 (centres unmarked)")
"Not satisfied"
>>> class_assignment("Cc1c(Cn2c3ccccc3n3c(=O)cc(N4CCOCC4)nc23)cccc1C(F)(F)F")
"Satisfied"

*Q* Hello, I'm reviewing records and need to know if %Inh of COc1ccc(Nc2nccc(N3CCC(NC(=O)C(C)c4ccc(Cl)cc4)C3)n2)cc1 (centres unmarked) is below 7%. Could you check?
*A* Satisfied

---

Reported %Inh values follow for various compounds
System: JNK2
Construct: gene MAPK9
Conditions: concentration: 1 μM, replicates: in singlicate; n = 1
# unit: % | format: bare number

Example entries and their recorded answers appear below.
>>> test_result("O=C(Nc1n[nH]c2cc(-c3ccsc3)ccc12)C1CC1")
25
>>> test_result("O=C(Nc1n[nH]c2nc(-c3cccs3)c(Br)cc12)C1CC1")
15
>>> test_result("CNC(=O)c1ccc(C)c(-n2c(C)cc(OCc3ccc(F)cc3F)c(Br)c2=O)c1")
100
>>> test_result("COc1cccc(NC(=O)Nc2ccc(C)c(-c3ccc(C(=O)Nc4ccncc4)cc3)c2)c1")
39
>>> test_result("COc1ccc(Nc2nccc(-c3ccc(NC(=O)c4cc5cc(F)ccc5[nH]4)cc3)n2)cc1")
9

Entry under test: `Fc1ccc(-c2nc3n(c2-c2ccncc2)CCS3)cc1` . Its %Inh was 96.2

Lab note: measured %Inh of `CCn1c(-c2c(N)noc2C)nc2cnccc21` was 23

Memo: `Cn1cncc1-c1cc2c(Nc3ccc(OCc4ccccc4)cc3)ncnc2cn1` , reported %Inh: 1

// %Inh value for `Cc1cnc(N)c(/C=C/c2cncc(C(=O)NCCc3ccc(Cl)cc3Cl)c2)c1.Cl` : 18

---

Tested on: MLK3
Conditions: concentration: 1 μM, replicates: in singlicate; n = 1
measured_attribute: %Inh (%)
I only need the number, in %, no unit after it.

>>> test_result("Cc1ccc(NC(=O)Nc2ccc(Cl)cc2)cc1-c1ccc(C(=O)Nc2ccncc2)cc1")
15
>>> test_result("O=C(Nc1n[nH]c2nc(-c3cccs3)c(Br)cc12)C1CC1")
0
>>> test_result("CCn1c(-c2c(N)noc2C)nc2cnccc21")
1

Field %Inh (entry `COc1nccc(-c2c(-c3ccc(F)cc3)ncn2CCCN2CCOCC2)n1` ) reads 0

Field %Inh (entry `O=C(Nc1n[nH]c2nc(-c3cccs3)c(Br)cc12)C1CCCC1` ) reads 19

Looking up `COc1ccc(Nc2nccc(-c3ccc(NC(=O)c4cc5cc(F)ccc5[nH]4)cc3)n2)cc1` , I see its %Inh listed as 0

Quick note, %Inh for `CNc1cc(-c2ccc3c(N)n[nH]c3c2)nc(N)n1` landed at 2

Looking up `CNc1nc(-c2ccc3c(N)n[nH]c3c2)cc(N2C[C@@H](C(=O)NC3CCCCC3)OC[C@H]2C)n1` , I found its %Inh recorded as 20

response.value for `FC(F)(F)c1ccccc1-c1cc(-c2c[nH]nc2-c2ccccn2)ccn1` (field: %Inh) = 1
